- measurement-target: mouse LAG-3/FGL1 (Mus musculus)
- Sequence (Q61790 24-521): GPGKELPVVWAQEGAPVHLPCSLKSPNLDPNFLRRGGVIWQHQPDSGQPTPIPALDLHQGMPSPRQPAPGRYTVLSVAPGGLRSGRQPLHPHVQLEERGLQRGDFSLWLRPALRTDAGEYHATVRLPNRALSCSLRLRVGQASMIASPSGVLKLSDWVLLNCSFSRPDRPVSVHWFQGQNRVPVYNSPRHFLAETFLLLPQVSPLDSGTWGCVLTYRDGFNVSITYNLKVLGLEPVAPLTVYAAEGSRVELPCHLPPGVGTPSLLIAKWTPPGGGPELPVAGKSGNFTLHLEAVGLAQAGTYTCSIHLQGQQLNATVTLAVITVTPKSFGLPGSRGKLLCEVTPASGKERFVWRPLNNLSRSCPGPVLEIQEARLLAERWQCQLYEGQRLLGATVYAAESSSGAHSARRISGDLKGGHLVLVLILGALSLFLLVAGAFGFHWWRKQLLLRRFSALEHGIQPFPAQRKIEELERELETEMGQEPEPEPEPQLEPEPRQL
- test-method-notes: Blocking assay of mLAG-3/mFGL1 interaction on CHO-K1-mLAG-3 cells
- Assay type: binding
Where no end group is shown, it is not given here.
observation-type: pIC50
One number for each entry, as −log10 of the molar value.

[in] Supply pIC50 value. Item: MHRPPST [LFP-6]
[out] 4.33
